Give measured normalised cell number for each item. Keep answers brief.
- MEASUREMENT_NOTES: differential killing of epithelial or mesenchymal cells, primary screen, imaging, PC-3E GFP, TEM4-18 mCherry, co-culture (AID 1345086);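 note: cells exposed to compound for 72 h before imaging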
- EXPERIMENTAL_PARAMETERS: imaging cell counts, measured here: mesenchymal TEM4-18 mCherry cell survival, at 1 µM

>>> observed("CC(C)=CCC/C(C)=C/CC/C(C)=C/CC/C(C)=C/CC/C(C)=C/CC/C(C)=C/CC/C(C)=C/CC/C(C)=C/CC/C(C)=C/CO")
1.07

// batch mode: one normalised cell number value per listed entry
1. Nc1ccc(Oc2ccccc2)cc1
2. COc1cc(O)c(C(C)=O)c(O)c1
3. C=CC(C)(C)c1cc(O)ccc1OC1OC(CO)C(O)C(O)C1O (stereo unspecified)
4. C=CCCCCCCCCCCCc1ccco1
5. CC1(C)C(C=C(Cl)Cl)C1C(=O)OCc1cccc(Oc2ccccc2)c1 (stereo unspecified)
6. O=C(O)CNc1ccc(Cl)cc1[N+](=O)[O-]
7. C=C1C[C@]23C[C@@]1(O)CC[C@H]2[C@@]12C=C[C@H](O)[C@](C)(C(=O)O1)[C@H]2[C@@H]3C(=O)O
8. CC(=O)O[C@]1(C(C)=O)CCC2C3C=C(Cl)C4=CC(=O)CC[C@]4(C)C3CC[C@@]21C (stereo partly specified)

a:
[0.94, 0.97, 0.94, 1.01, 1, 1.17, 1.02, 1.21]

// batch mode: one normalised cell number value per listed entry
1. CCCc1oc(=O)cc(OC)c1CO
2. O=c1c(O)cccc2cc(O)c(O)c(O)c12

a:
1: 1.03; 2: 1.02
